Catalogue of sequences with associated total protein half-life in vivo
Test: total protein half-life in vivo (active degradation + dilution); higher = more stable protein
Conditions: wild type E. coli NCM3722; growth: N-lim chemostat; doubling time 6 h

INPUT SEQUENCE	UNIT SYMBOL	total protein half-life in vivo
MVEDILAPGLRVVFCGINPGLSSAGTGFPFAHPANRFWKVIYQAGFTDRQLKPQEAQHLLDYRCGVTKLVDRPTVQANEVSKQELHAGGRKLIEKIEDYQPQALAILGKQAYEQGFSQRGAQWGKQTLTIGSTQIWVLPNPSGLSRVSLEKLVEAYRELDQALVVRGR [P0A9H1]	h	5.18
MQENQQITKKEQYNLNKLQKRLRRNVGEAIADFNMIEEGDRIMVCLSGGKDSYTMLEILRNLQQSAPINFSLVAVNLDQKQPGFPEHVLPEYLEKLGVEYKIVEENTYGIVKEKIPEGKTTCSLCSRLRRGILYRTATELGATKIALGHHRDDILQTLFLNMFYGGKMKGMPPKLMSDDGKHIVIRPLAYCREKDIQRFADAKAFPIIPCNLCGSQPNLQRQVIADMLRDWDKRYPGRIETMFSAMQNVVPSHLCDTNLFDFKGITHGSEVVNGGDLAFDREEIPLQPACWQPEEDENQLDELRLNVVEVK	h	1.26
MRILLIEDDMLIGDGIKTGLSKMGFSVDWFTQGRQGKEALYSAPYDAVILDLTLPGMDGRDILREWREKGQREPVLILTARDALAERVEGLRLGADDYLCKPFALIEVAARLEALMRRTNGQASNELRHGNVMLDPGKRIATLAGEPLTLKPKEFALLELLMRNAGRVLSRKLIEEKLYTWDEEVTSNAVEVHVHHLRRKLGSDFIRTVHGIGYTLGEK	h	4.2
MSFELPALPYAKDALAPHISAETIEYHYGKHHQTYVTNLNNLIKGTAFEGKSLEEIIRSSEGGVFNNAAQVWNHTFYWNCLAPNAGGEPTGKVAEAIAASFGSFADFKAQFTDAAIKNFGSGWTWLVKNSDGKLAIVSTSNAGTPLTTDATPLLTVDVWEHAYYIDYRNARPGYLEHFWALVNWEFVAKNLAA [P0AGD3]	h	5.07
MTISELLQYCMAKPGAEQSVHNDWKATQIKVEDVLFAMVKEVENRPAVSLKTSPELAELLRQQHSDVRPSRHLNKAHWSTVYLDGSLPDSQIYYLVDASYQQAVNLLPEEKRKLLVQL [P0AF50]	h	3.75
MHVFDNNGIELKAECSIGEEDGVYGLILESWGPGDRNKDYNIALDYIIERLVDSGVSQVVVYLASSSVRKHMHSLDERKIHPGEYFTLIGNSPRDIRLKMCGYQAYFSRTGRKEIPSGNRTKRILINVPGIYSDSFWASIIRGELSELSQPTDDESLLNMRVSKLIKKTLSQPEGSRKPVEVERLQKVYVRDPMVKAWILQQSKGICENCGKNAPFYLNDGNPYLEVHHVIPLSSGGADTTDNCVALCPNCHRELHYSKNAKELIEMLYVNINRLQK	h	4.8
MTKQVKIYHNPRCSKSRETLNLLKENGVEPEVVLYLETPADAATLRDLLKILGMNSARELMRQKEDLYKELNLADSSLSEEALIQAMVDNPKLMERPIVVANGKARIGRPPEQVLEIVG	h	2.58
MSERLSITPLGPYIGAQISGADLTRPLSDNQFEQLYHAVLRHQVVFLRDQAITPQQQRALAQRFGELHIHPVYPHAEGVDEIIVLDTHNDNPPDNDNWHTDVTFIETPPAGAILAAKELPSTGGDTLWTSGIAAYEALSVPFRQLLSGLRAEHDFRKSFPEYKYRKTEEEHQRWREAVAKNPPLLHPVVRTHPVSGKQALFVNEGFTTRIVDVSEKESEALLSFLFAHITKPEFQVRWRWQPNDIAIWDNRVTQHYANADYLPQRRIMHRATILGDKPFYRAG	h	1.58
MTSPNILLTRIDNRLVHGQVGVTWTSTIGANLLVVVDDVVANDDIQQKLMGITAETYGFGIRFFTIEKTINVIGKAAPHQKIFLICRTPQTVRKLVEGGIDLKDVNVGNMHFSEGKKQISSKVYVDDQDLTDLRFIKQRGVNVFIQDVPGDQKEQIPD	h	3.67
MTEPLKPRIDFDGPLEVDQNPKFRAQQTFDENQAQNFAPATLDEAQEEEGQVEAVMDAALRPKRSLWRKMVMGGLALFGASVVGQGVQWTMNAWQTQDWVALGGCAAGALIIGAGVGSVVTEWRRLWRLRQRAHERDEARDLLHSHGTGKGRAFCEKLAQQAGIDQSHPALQRWYASIHETQNDREVVSLYAHLVQPVLDAQARREISRSAAESTLMIAVSPLALVDMAFIAWRNLRLINRIATLYGIELGYYSRLRLFKLVLLNIAFAGASELVREVGMDWMSQDLAARLSTRAAQGIGAGLLTARLGIKAMELCRPLPWIDDDKPRLGDFRRQLIGQVKETLQKGKTPSEK [P0A8R7]	h	5.23
MNKRDAINHIRQFGGRLDRFRKSVGGSGDGGRNAPKRAKSSPKPVNRKTNVFNEQVRYAFHGALQDLKSKPFATFLTVMVIAISLTLPSVCYMVYKNVNQAATQYYPSPQITVYLQKTLDDDAAAGVVAQLQAEQGVEKVNYLSREDALGEFRNWSGFGGALDMLEENPLPAVAVVIPKLDFQGTESLNTLRDRITQINGIDEVRMDDSWFARLAALTGLVGRVSAMIGVLMVAAVFLVIGNSVRLSIFARRDSINVQKLIGATDGFILRPFLYGGALLGFSGALLSLILSEILVLRLSSAVAEVAQVFGTKFDINGLSFDECLLLLLVCSMIGWVAAWLATVQHLRHFTPE [P0AC30]	h	6.42
MALLPDKEKLLRNFLRCANWEEKYLYIIELGQRLPELRDEDRSPQNSIQGCQSQVWIVMRQNAQGIIELQGDSDAAIVKGLIAVVFILYDQMTPQDIVNFDVRPWFEKMALTQHLTPSRSQGLEAMIRAIRAKAAALS	h	3.51

Cited source: the supplement of paper PMC11246515
